Test system: SK-MEL-2 melanoma
Assay: NCI tumour cell line growth inhibition, 48 h
endpoint name: GI50

Form: item COc1ccc(C(=O)c2cc(OC)c(C)c(OC)c2)cc1OC(=O)CCl ; test system SK-MEL-2 melanoma; GI50: 0.671 µM

Hey, SK-MEL-2 melanoma data for C=C(C=O)C1CCC2(C(=O)O)CCC3(C)C(CCC4C5(C)CCC(O)C(C)(C)C5CCC43C)C12 (stereo unspecified) : GI50 came out at 3.82 µM

###

Recorded TGI values for a group of compounds are listed next.
Test system: ACHN renal
Assay: NCI tumour cell line growth inhibition, 48 h

Check out these entries, answers already filled in.
# compound, value reported
data = [
    ("C[N+](C)([O-])CCC=C1c2ccccc2CCc2ccccc21", "> 100 µM"),
    ("CCCCCCCCCC/C=C/CC(=O)SCCNC(=O)CCNC(=O)[C@@H](O)C(C)(C)COP(=O)(O)OP(=O)(O)OCC1OC(n2cnc3c(N)ncnc32)C(O)C1OP(=O)(O)O (stereo partly specified)", "> 10 µM"),
    ("COC(=O)C1=C(c2ccc3c(c2)OCO3)O[C@H](c2cc(OC)c(OC)c(OC)c2)[C@H]1COC(C)=O", "> 100 µM"),
]

So for COc1cc(-c2cc(=O)c3c(OC)c(OC)c(OC)c(OC)c3o2)c(OC)c(OC)c1OC , the logged TGI turned out to be > 100 µM

Briefly, TGI measured for CCCCOC(=O)C1C(c2ccc(Cl)cc2)NC(c2ccc(Cl)cc2)C(C(=O)OCCCC)S1(=O)=O (stereo unspecified) : > 100 µM

TGI recorded for this compound, COC(=O)c1cc2c3ccccc3n(C(C)=O)c2cn1 , is > 100 µM

###

Tested on: LXFL 529 NSCLC
Assay: NCI tumour cell line growth inhibition, 48 h
endpoint name: TGI

# molecule, study system, TGI
records = [
    ("O=C1CCCC/C(=C/c2ccccc2)N1", "LXFL 529 NSCLC", "> 100 µM"),
]

The measured TGI associated with CCCCN(CCCC)CC(C(=O)Nc1ccc([N+](=O)[O-])cc1[N+](=O)[O-])/C(C)=N\NC(=S)NN (stereo not drawn) reads > 100 µM

So, CCCCOC(=O)C1C(c2ccc(Cl)cc2)NC(c2ccc(Cl)cc2)C(C(=O)OCCCC)S1(=O)=O (stereo not drawn) ? Its TGI was > 100 µM

###

System: RPMI-8226 leukemia
Test: NCI tumour cell line growth inhibition, 48 h
endpoint name: TGI (µM)
Write down the numeric answer in µM and omit the unit.

# smiles record, display unit, TGI
rows = [
    ("COc1ccc(/C=C(/C(=O)c2ccc(Cl)cc2)N2C=CC=CC2=C(C#N)C#N)cc1OC", "µM", 8.59),
]

Reported TGI ( C=CCNC1=C2C[C@@H](C)C[C@@H](OC)[C@H](OC(=O)CCCCN)[C@H](C)/C=C(\C)[C@@H](OC(N)=O)[C@H](OC)/C=C\C=C(/C)C(=O)NC(=CC1=O)C2=O ) = 35.1

###

Tested on: 786-0 renal
Assay: NCI tumour cell line growth inhibition, 48 h
Reported TGI by item:

# molecule, value reported
records = [
    ("CC(C)(C)OC(=O)NCC(=O)OCc1ccccc1", "> 100 µM"),
    ("O=c1[nH]c(-c2ccc3ccccc3c2)nc2ccccc12", "> 100 µM"),
]

Switching to the query record.
// TGI value for COc1ccc2c(c1)CCC1C2CC[C@@]2(C)C1CC1=CC(COC(C)=O)C3C(=O)c4ccccc4C(=O)C3C12 (stereo partly drawn) : > 100 µM
